Attribution: patent US20200002414A1

- SYSTEM TESTED: T1, human Ror2 (human, UniProt Q01974 34-403, limits assumed)
- T1 construct: also called hROR2; receptor tyrosine kinase-like orphan receptor 2
- T1 sequence (Q01974 34-403 limits assumed): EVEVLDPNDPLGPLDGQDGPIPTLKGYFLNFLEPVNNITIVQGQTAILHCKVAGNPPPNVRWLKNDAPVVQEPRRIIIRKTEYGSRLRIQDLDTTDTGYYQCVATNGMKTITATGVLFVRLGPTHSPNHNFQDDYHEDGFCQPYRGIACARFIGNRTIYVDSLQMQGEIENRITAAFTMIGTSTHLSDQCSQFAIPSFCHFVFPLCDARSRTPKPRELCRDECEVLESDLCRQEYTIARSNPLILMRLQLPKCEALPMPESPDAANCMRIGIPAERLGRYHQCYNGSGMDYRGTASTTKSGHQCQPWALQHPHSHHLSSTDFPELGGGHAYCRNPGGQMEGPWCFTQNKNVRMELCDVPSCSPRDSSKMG
- METHOD: ELISA, human Ror2; ratio of signal at pH 6.0 to pH 7.4
PROPERTY: ratio, pH 6.0/7.4
Write no unit; give the number alone.

| BINDER | PROPERTY | RECORDED MEASUREMENT |
| --- | --- | --- |
| HC-I051E (antibody, V domains shown) VH: EVQLQQSGPELVKPGASVKISCKTSGYTFTEYTMHWMKQSHRKSLEWIGGENTNNGGTGYNQKFKGKATLTVDKSSSTAYMELRSLTSEDSAVYFCARGSLYSYGNSYFDYWGQGTLVTVSS VL: QIVLTQSPAIMSASPGEKVTITCSATSSVSYMHWFQQKPGTSPKLWIYGTSNLASGVPARFSGSGSGTSYSLTISRMEAEDAATYYCQQRSSYPFTFGQGTKVEIK | ratio, pH 6.0/7.4 | 10.4 |

Kindly consider the entry below.
// recorded ratio, pH 6.0/7.4 for HC-Y111C (antibody, V domains shown) VH: EVQLQQSGPELVKPGASVKISCKTSGYTFTEYTMHWMKQSHRKSLEWIGGINTNNGGTGYNQKFKGKATLTVDKSSSTAYMELRSLTSEDSAVYFCARGSLYSYGNSYFDCWGQGTLVTVSS VL: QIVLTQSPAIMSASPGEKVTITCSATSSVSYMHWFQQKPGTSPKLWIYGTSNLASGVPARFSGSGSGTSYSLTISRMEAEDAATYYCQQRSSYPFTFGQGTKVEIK : 1.36
